measurement notes: modulators of CIT2-GFP expression in yeast, confirmation, S. cerevisiae, GFP fusion, cherry picks, mother/daughter gates (AID 2274)
measurement parameters: S. cerevisiae CIT2-GFP strain, flow cytometry, 3 h; at 10 µM; stronger effect = higher value
measurement name: GFP response, % of DMSO (%)
Provide only the numeric value, understood in %.

Requested field: GFP response, % of DMSO. Item: CC(=O)N(\C=C/C=C/C=C1\Sc2ccccc2C1=O)c1ccccc1 131

# get_value(readout='GFP response, % of DMSO', item= COc1ccc(C(=O)c2nccc3ccccc23)cc1 ) 98.3

Query: GFP response, % of DMSO; subject: O=C(Nc1c(-c2ccccc2)nc2ccccn12)c1ccco1 103

Others:
GFP response, % of DMSO lookup needed for Cn1cnc([N+](=O)[O-])c1S(=O)(=O)c1cccc(Cl)c1 , thanks. 118

Field request: GFP response, % of DMSO | item: CC1CCN(S(=O)(=O)c2cccc(C(=O)Nc3nccs3)c2)CC1 107

Entry O=C(CSc1nnc(-c2ccccn2)n1Cc1ccccc1)N1CCOCC1 has what GFP response, % of DMSO? 104

For Oc1c(N=Nc2ccccn2)ccc2ccccc12 , what is its reported GFP response, % of DMSO? 93.5

Which GFP response, % of DMSO value is on record for COc1ccc(/C=N/Nc2nnc(C)n2N)cc1OC(C)=O ? 104

====

measurement notes: RPL19A-GFP modulators, yeast TOR pathway, confirmation, cell-based, S. cerevisiae, flow cytometry, cherry picks, mother/daughter gates (AID 2270)
measurement parameters: S. cerevisiae RPL19A-GFP strain, 3 h, at 10 µM, stronger effect = lower value, 100 = same GFP as DMSO wells
We begin with a simple list: items and their reported GFP response vs DMSO.
Unit % implied. Number only.

Here's what some known entries look like.
Report GFP response vs DMSO for CCOC(=O)c1cc2c(=O)n3ccccc3nc2n(CCOC)c1=NC(=O)C(C)(C)C please. 99.4

Which GFP response vs DMSO is reported for this molecule? COc1ccccc1-c1noc(CCC(=O)Nc2cccc(C)c2)n1 99.9

Need GFP response vs DMSO, item Cc1n[nH]c(C)c1N1C(=O)c2cccc3c(Br)ccc(c23)C1=O 101

Others:
// returns reported GFP response vs DMSO for input CCc1cc(=O)oc2c(CN3CCCC3)c(O)c(Cl)cc12 97.6

Recorded GFP response vs DMSO for Cc1cc(NCCN2CCOCC2)n2nc(C)c(-c3ccc(Cl)cc3)c2n1 , please? 97.1

Please look up its GFP response vs DMSO: CCCNC(=O)COC(=O)c1ccc(S(=O)(=O)N2CCCC2)cc1 97.2

State the recorded GFP response vs DMSO for this entry: Cc1cccc(CSc2cccc3cccnc23)c1 92.3

Value lookup for GFP response vs DMSO; key = CNc1nc(-c2ccccc2)cc(C(F)(F)F)c1C#N 97.4

====

We begin with a simple list: items and their reported response.
measurement notes: yeast V-ATPase proton transport modulators, S. cerevisiae, pHLuorin, HTS validation (AID 504600);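 further: plate controls were DMSO for no effect and reference compound for full effect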
measurement parameters: S. cerevisiae pHLuorin cytosolic pH, at 10 µM, stronger effect = higher value
// note: answer is a bare numeric in %

Previously resolved entries follow.
Reported response, compound COc1ccc2[nH]cc(C(=O)CCl)c2c1 : ____ -6.9

Given the entry Nc1nnc(-c2cccc(Cl)c2Cl)c(N)n1 , report its measured response. -3.91

// returns reported response for input O=C(Oc1cccccc1=O)c1ccccc1 -32.2

Need response of Cc1ncc(C(=O)O)c(C(=O)O)c1N , thanks. -3.73

Would you mind telling me what response value was observed for CC(=O)OCC(=O)C1=CCC2C3CCC4=CC(=O)C=CC4(C)C3(F)C(OC(C)=O)CC12C (stereo not given) ? 6.47

Give the measured response of COc1ccccc1C(=O)c1cc2ccc(O)cc2oc1=O . 5.05

Requested read-out: response. Entry: O=C1N[C@@H](Cc2cnc[nH]2)C(=O)N2CCC[C@@H]12 6.06

Given the compound COc1ccc(-c2nc(C)c(C(C)=O)n2O)cc1OC , what is its reported response? 1.53

Others:
Look up response: Cc1oc2ccc(OC(=O)c3cccs3)cc2c1C(=O)OC(C)C -4.85

Consider the compound CNS(=O)(=O)c1ccc(C)cc1 and give its measured response. 17.1

I would be grateful if you could share the reported response for O=C(O)CCCCCCCC(=O)O . 0.2

Request the reported response associated with CC(C)Cc1cc(C(=O)N2CCC(N3CCC(C(=O)N4CCCC4)CC3)CC2)n[nH]1 1.07

Tell me the measured response of CC(C)C1Cc2[nH]c(=O)c(C(=O)O)cc2CO1 (stereo not given) , please. -0.04

====

measurement notes: yeast V-ATPase proton transport modulators, S. cerevisiae, pHLuorin, HTS validation (AID 504600);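 further: plate controls were DMSO for no effect and reference compound for full effect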
measurement parameters: S. cerevisiae pHLuorin cytosolic pH, at 10 µM, stronger effect = higher value
Each item that follows carries a reported response.
Just the number in %, nothing appended.

What value of response has been reported for the following molecule? Clc1ccc(Cn2c(CN3CCCC3)nc3ccccc32)cc1 -2.91

Continuing:
Which response reading was recorded for the molecule COc1cccc(OC)c1C(=O)NCCSC1CCCCC1 ? -0.98

Suppose we examine the molecule Cc1cccc(N2C(=O)C3C(c4ccccc4)OC4(C(=O)c5ccccc5C4=O)C3C2=O)c1 (stereo unspecified) ; what response value has been reported? -0.37

Any idea what its response is? The molecule is CC(=O)O[C@H]1CSC[C@H]1NC(=O)c1ccccc1 -9.38

Which response is listed for C[C@H](CS)C(=O)N1CCC[C@H]1C(=O)O ? -1.86

Value lookup for response; key = CC(C)=CCCC(C)CN1CCC(N2CCC(C(=O)N3CCCC3)CC2)CC1 (stereo unspecified) -0.07

====

measurement notes: modulators of CIT2-GFP expression in yeast, confirmation, S. cerevisiae, GFP fusion, cherry picks, mother/daughter gates (AID 2274)
measurement parameters: S. cerevisiae CIT2-GFP strain, flow cytometry, 3 h; measured here: daughter cell gate; at 10 µM; stronger effect = higher value
The compounds listed here are annotated with their GFP response, % of DMSO.
Number only, in %; omit the unit.

Give its GFP response, % of DMSO value. Item: Cc1ccc(/C=N/NC(=O)c2ccccn2)s1 93.8

Requested field: GFP response, % of DMSO. Item: CCC(Sc1nc(=O)cc(N)n1-c1ccccc1)C(=O)Nc1cc(C)on1 (stereo not drawn) 111

Item under review: CCN=C(NCC)SC1CC(=O)N(c2cccc(OCC)c2)C1=O (stereo not drawn) . Reported GFP response, % of DMSO? 103

Next:
What does the data say about its GFP response, % of DMSO? Entry: C/C(=N\NC(=O)c1ccc(Cl)c(Cl)c1)c1cccc(NC(=O)C(C)C)c1 100

What value of GFP response, % of DMSO has been recorded for this entry: CCCc1[nH]nc2c1C(c1ccc(OC)c(Cn3nnc4ccccc43)c1)C(C#N)=C(N)O2 (stereo not drawn) 99.1

Query (compound): COc1ccccc1NC(=O)c1ccc([N+](=O)[O-])o1 ; field requested: GFP response, % of DMSO 108

May I ask what GFP response, % of DMSO has been recorded for Cc1ccccc1N1C(=O)CC(Sc2nnc(-c3ccccc3)o2)C1=O (stereo not drawn) ? 97.4

====

Reported GFP response, % of DMSO values follow for various compounds
measurement notes: modulators of CIT2-GFP expression in yeast, confirmation, S. cerevisiae, GFP fusion, cherry picks, mother/daughter gates (AID 2274)
measurement parameters: S. cerevisiae CIT2-GFP strain, flow cytometry, 3 h; measured here: daughter cell gate; at 10 µM; stronger effect = higher value
Form entry: value (%) — number only.

Using the record for Cc1ccc(S(=O)(=O)NCC23C=CC(O2)C2C(=O)N(c4ccccc4)C(=O)C23)cc1 (stereo unspecified) , report its GFP response, % of DMSO. 105

Continuing:
So what's the measured GFP response, % of DMSO for this one? Cc1nn(Cc2c(Cl)cccc2Cl)c(C)c1NC(=O)c1sc2ccccc2c1Cl 100

Can you look up the measured GFP response, % of DMSO of O=C(Nc1ccc(S(=O)(=O)N2CCOCC2)cc1)c1ccc([N+](=O)[O-])cc1Cl for me? 103

# lookup: GFP response, % of DMSO of Cc1cc(NCCCn2ccnc2)n2ncc(-c3ccccc3)c2n1 101

Which GFP response, % of DMSO reading was recorded for the compound CCCN1C(=O)c2cccc3c(N4CCCCC4)ccc(c23)C1=O ? 105

Name the recorded GFP response, % of DMSO for Cc1cccc(NC(=O)c2ccccc2O)c1C . 95.8

I have this compound here, CS(=O)(=O)N1N=C(c2ccco2)CC1c1ccc(Br)cc1 (stereo unspecified) , and I need its recorded GFP response, % of DMSO. 103

Endpoint output: GFP response, % of DMSO of CC(C)NC(=O)c1ccccc1-c1nc(-c2ccccc2Cl)no1 . Value? 93.2

Look up GFP response, % of DMSO: Clc1ccc(C2=NNC(=NCc3ccccc3)SC2)cc1 101

GFP response, % of DMSO lookup needed for O=C1C2C3C=CC(C4CC34)C2C(=O)N1/N=C/c1ccc([N+](=O)[O-])o1 (stereo unspecified) , thanks. 112

Need GFP response, % of DMSO, item Cc1ccc(C(C(=O)NC2CCCCC2)N(CCCN2CCOCC2)C(=O)c2snc(C(N)=O)c2N)cc1 (stereo unspecified) 98.3

meta.source: PubChem BioAssay
